Where do these numbers come from? They come from patent US11912682B2.

Quick list: DC50 per entry.
molecular target: GSPT1 (Homo sapiens (Human), UniProt P15170+Q96SW2); experiment: immunofluorescence assay for GSPT1 degradation in CAL-51 cells (Example 4); assay type: cell-based; details: 6 hours, read-out: Activity for GSPT1 degradation, Code (DC50)
Sequence (P15170 whole entry): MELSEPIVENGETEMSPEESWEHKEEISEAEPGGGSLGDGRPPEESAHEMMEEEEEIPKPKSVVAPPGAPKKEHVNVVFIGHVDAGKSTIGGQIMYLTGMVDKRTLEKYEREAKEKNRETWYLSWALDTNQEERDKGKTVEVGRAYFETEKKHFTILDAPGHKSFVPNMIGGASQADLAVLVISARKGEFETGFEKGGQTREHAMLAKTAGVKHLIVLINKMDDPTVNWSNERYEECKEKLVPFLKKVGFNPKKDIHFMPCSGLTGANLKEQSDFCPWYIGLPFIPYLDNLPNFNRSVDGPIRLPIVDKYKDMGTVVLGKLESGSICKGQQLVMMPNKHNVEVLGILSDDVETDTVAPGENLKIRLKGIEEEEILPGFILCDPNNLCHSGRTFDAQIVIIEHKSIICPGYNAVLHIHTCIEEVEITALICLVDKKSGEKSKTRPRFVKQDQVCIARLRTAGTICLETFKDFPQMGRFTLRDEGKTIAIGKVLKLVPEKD
Sequence (Q96SW2 whole entry): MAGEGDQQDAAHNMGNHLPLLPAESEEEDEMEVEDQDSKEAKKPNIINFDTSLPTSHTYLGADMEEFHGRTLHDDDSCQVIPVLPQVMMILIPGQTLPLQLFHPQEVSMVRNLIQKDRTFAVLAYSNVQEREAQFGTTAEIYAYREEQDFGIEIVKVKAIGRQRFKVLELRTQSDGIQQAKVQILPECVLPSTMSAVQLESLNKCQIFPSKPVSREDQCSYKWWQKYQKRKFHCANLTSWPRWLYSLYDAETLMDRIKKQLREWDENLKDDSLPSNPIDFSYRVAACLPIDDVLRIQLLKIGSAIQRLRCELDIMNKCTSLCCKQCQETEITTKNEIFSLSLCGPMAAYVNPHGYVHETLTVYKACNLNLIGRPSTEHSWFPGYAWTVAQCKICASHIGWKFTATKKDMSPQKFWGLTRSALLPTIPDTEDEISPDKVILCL
Sequence (Q16531 2-1140 partner): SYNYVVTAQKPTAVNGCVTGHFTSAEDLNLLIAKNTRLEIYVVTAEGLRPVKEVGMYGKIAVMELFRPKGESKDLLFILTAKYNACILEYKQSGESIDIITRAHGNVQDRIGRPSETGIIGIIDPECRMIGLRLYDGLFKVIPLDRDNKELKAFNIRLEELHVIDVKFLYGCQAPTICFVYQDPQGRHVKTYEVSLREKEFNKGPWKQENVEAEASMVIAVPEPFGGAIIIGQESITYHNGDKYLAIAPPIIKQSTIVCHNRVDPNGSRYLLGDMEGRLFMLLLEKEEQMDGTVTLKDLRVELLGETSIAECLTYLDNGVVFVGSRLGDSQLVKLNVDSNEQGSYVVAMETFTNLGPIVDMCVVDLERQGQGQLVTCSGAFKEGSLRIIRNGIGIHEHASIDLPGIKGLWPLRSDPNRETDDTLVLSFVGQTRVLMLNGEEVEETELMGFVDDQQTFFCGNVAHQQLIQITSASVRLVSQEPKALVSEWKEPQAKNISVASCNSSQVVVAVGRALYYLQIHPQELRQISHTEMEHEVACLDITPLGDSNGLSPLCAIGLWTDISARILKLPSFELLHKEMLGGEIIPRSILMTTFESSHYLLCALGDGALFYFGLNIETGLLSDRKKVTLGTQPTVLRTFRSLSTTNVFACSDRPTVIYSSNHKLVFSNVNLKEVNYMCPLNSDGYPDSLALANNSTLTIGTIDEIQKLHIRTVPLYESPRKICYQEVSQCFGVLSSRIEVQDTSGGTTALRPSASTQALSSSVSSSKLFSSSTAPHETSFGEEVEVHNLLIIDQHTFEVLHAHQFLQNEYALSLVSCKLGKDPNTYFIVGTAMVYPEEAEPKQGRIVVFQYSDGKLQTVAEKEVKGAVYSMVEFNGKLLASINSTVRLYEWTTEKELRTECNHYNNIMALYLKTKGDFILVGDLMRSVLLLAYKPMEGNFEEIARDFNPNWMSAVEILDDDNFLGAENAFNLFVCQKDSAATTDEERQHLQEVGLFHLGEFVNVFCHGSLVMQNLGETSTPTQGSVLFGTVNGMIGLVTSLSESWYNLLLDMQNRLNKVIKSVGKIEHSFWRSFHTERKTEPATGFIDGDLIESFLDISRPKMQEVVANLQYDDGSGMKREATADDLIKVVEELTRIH

Compound: O=C1CCC(N2Cc3ccc(COC(=O)Nc4ccc(C5CC5(F)F)cc4)cc3C2=O)C(=O)N1 (stereo not drawn)
DC50: 30 to 300 nM

Compound: COc1cc(C)c(Cl)cc1NC(=O)OCc1ccc2c(c1)C(=O)N(C1CCC(=O)NC1=O)C2 (stereo not drawn)
DC50: < 30 nM

Compound: Cc1cc(NC(=O)OCc2ccc3c(c2)C(=O)N(C2CCC(=O)NC2=O)C3)cnc1-c1ccccc1 (stereo not drawn)
DC50: < 30 nM

Compound: O=C1CCC(N2Cc3ccc(COC(=O)Nc4ccc(-c5ccccn5)cc4)cc3C2=O)C(=O)N1 (stereo not drawn)
DC50: < 30 nM

Compound: O=C1CCC(N2Cc3ccc(COC(=O)Nc4ccccc4)cc3C2=O)C(=O)N1 (stereo not drawn)
DC50: > 300 nM

Compound: Cc1c(Cl)cc(NC(=O)OCc2ccc3c(c2)C(=O)N(C2CCC(=O)NC2=O)C3)cc1OC1CCN(C)C1 (stereo not drawn)
DC50: < 30 nM

Compound: O=C1CCC(N2Cc3ccc(COC(=O)Nc4cc(C(F)(F)F)ns4)cc3C2=O)C(=O)N1 (stereo not drawn)
DC50: 30 to 300 nM

Compound: Cc1cc(NC(=O)OCc2ccc3c(c2)C(=O)N(C2CCC(=O)NC2=O)C3)cc(F)c1C (stereo not drawn)
DC50: 30 to 300 nM

Compound: CCc1ncc(NC(=O)OCc2ccc3c(c2)C(=O)N(C2CCC(=O)NC2=O)C3)cc1C (stereo not drawn)
DC50: < 30 nM

Compound: CC(C)(C)c1cc(NC(=O)OCc2ccc3c(c2)C(=O)N(C2CCC(=O)NC2=O)C3)ccn1 (stereo not drawn)
DC50: < 30 nM

Compound: O=C1CCC(N2Cc3ccc(COC(=O)Nc4cccc(OC(F)(F)F)c4)cc3C2=O)C(=O)N1 (stereo not drawn)
DC50: < 30 nM

Compound: CCc1cc(NC(=O)OCc2ccc3c(c2)C(=O)N(C2CCC(=O)NC2=O)C3)cc(Cl)c1C (stereo not drawn)
DC50: 30 to 300 nM

Compound: O=C1CCC(N2Cc3ccc(COC(=O)Nc4cc(Cl)cc(OC(F)F)c4)cc3C2=O)C(=O)N1 (stereo not drawn)
DC50: 30 to 300 nM

Compound: COc1cc(Cl)ccc1NC(=O)OCc1ccc2c(c1)C(=O)N(C1CCC(=O)NC1=O)C2 (stereo not drawn)
DC50: > 300 nM

Compound: Cc1cc(C)cc(NC(=O)OCc2ccc3c(c2)C(=O)N(C2CCC(=O)NC2=O)C3)c1 (stereo not drawn)
DC50: < 30 nM

Compound: O=C1CCC(N2Cc3ccc(COC(=O)NCc4ccccc4)cc3C2=O)C(=O)N1 (stereo not drawn)
DC50: > 300 nM

Compound: CCc1nscc1NC(=O)OCc1ccc2c(c1)C(=O)N(C1CCC(=O)NC1=O)C2 (stereo not drawn)
DC50: > 300 nM

Compound: Cc1c(Cl)cc(NC(=O)OCc2ccc3c(c2)C(=O)N(C2CCC(=O)NC2=O)C3)cc1OCC1CCN(C)C1 (stereo not drawn)
DC50: 30 to 300 nM

Compound: CC(NC(=O)OCc1ccc2c(c1)C(=O)N(C1CCC(=O)NC1=O)C2)c1ccccc1 (stereo not drawn)
DC50: > 300 nM

Compound: O=C1CCC(N2Cc3ccc(COC(=O)Nc4ccc(-c5ccccc5)nc4)cc3C2=O)C(=O)N1 (stereo not drawn)
DC50: < 30 nM

Compound: COc1cc(NC(=O)OCc2ccc3c(c2)C(=O)N(C2CCC(=O)NC2=O)C3)cnc1C (stereo not drawn)
DC50: 30 to 300 nM
